Attribution: ChEMBL document CHEMBL1141332

# System: OVCAR-5
# assay.comment: Cytotoxicity against human OVCAR5 cells
# Assay type: functional
# protocol.conditions: read-out: Log LC50 (the source's name) (converted)
The entries below come with measured CC50 values attached.
Provide only the numeric value, understood in µM.

Asked: Return reported CC50; argument: `CC(=O)C1=CC[C@H]2[C@]3(C)CC[C@H]4C(C)(C)CCC[C@]4(C(=O)O)[C@H]3CC(=O)[C@]2(C)[C@H]1C=O`
Given back: 8.91

Asked: Param item: CC1OC(=O)[C@H]2[C@H]1[C@@H](O)C[C@H]1[C@]3(C)CC[C@H]4C(C)(C)CCC[C@]4(C)[C@H]3C[C@@H](O)[C@]21C (some centres undefined)
Given back: 75.9

Asked: Try this compound next: `CC(=O)O[C@@H]1C[C@H]2[C@]3(C)CC[C@H]4C(C)(C)CCC[C@]4(C)[C@H]3C[C@H](O)[C@]2(C)[C@@H](C=O)[C@@H]1C(C)=O`
Given back: 5.13

Turning to the following compound.
Asked: Which CC50 reading was recorded for the compound `CC(=O)O[C@H]1C[C@H]2[C@@](C)(CC[C@H]3C(C)(C)CCC[C@@]32CO)[C@@H]2CC=C(C(C)=O)[C@H](C=O)[C@@]12C` ?
Given back: 4.68

* * *

The compounds listed here are annotated with their CC50.
# Tested on: M14
# assay.comment: Cytotoxicity against human M14 cells
# Format: functional
# protocol.conditions: read-out: Log LC50 (the source's name) (converted)
Numbers only here, please. The scale is µM.

Past entries and their recorded results:
Asked: Query the reported CC50 for M14; item: `CC(=O)O[C@H]1C[C@H]2[C@@](C)(CC[C@H]3C(C)(C)CCC[C@@]32CO)[C@@H]2CC=C(C(C)=O)[C@H](C=O)[C@@]12C`
Given back: 4.9

Asked: Follow-up item: CC1OC(=O)[C@H]2[C@H]1[C@@H](O)C[C@H]1[C@]3(C)CC[C@H]4C(C)(C)CCC[C@]4(C)[C@H]3C[C@@H](O)[C@]21C (some centres undefined)
Given back: 69.2

Asked: And for `CC(=O)O[C@@H]1C[C@H]2[C@]3(C)CC[C@H]4C(C)(C)CCC[C@]4(C)[C@H]3C[C@H](O)[C@]2(C)[C@@H](C=O)[C@@H]1C(C)=O` ?
Given back: 5.37

# evaluate next
Asked: Query for M14: what CC50 does the record show for `CC(=O)C1=CC[C@H]2[C@]3(C)CC[C@H]4C(C)(C)CCC[C@]4(C(=O)O)[C@H]3CC(=O)[C@]2(C)[C@H]1C=O` ?
Given back: 6.92

* * *

# Tested on: HCT-116
# assay.comment: Cytotoxicity against human HCT116 cells
# Format: functional
# key: entry, value: GI50
Express it in nM; write the number only.

Asked: Which GI50 value belongs to `CC(=O)O[C@H]1C[C@H]2[C@@](C)(CC[C@H]3C(C)(C)CCC[C@@]32CO)[C@@H]2CC=C(C(C)=O)[C@H](C=O)[C@@]12C` ?
Given back: 186

***
Asked: Consider the compound CC1OC(=O)[C@H]2[C@H]1[C@@H](O)C[C@H]1[C@]3(C)CC[C@H]4C(C)(C)CCC[C@]4(C)[C@H]3C[C@@H](O)[C@]21C (some centres undefined) and give its measured GI50.
Given back: 11200

Asked: Please do the same for CC(=O)O[C@@H]1C[C@H]2[C@]3(C)CC[C@H]4C(C)(C)CCC[C@]4(C)[C@H]3C[C@H](O)[C@]2(C)[C@@H](C=O)[C@@H]1C(C)=O [SCALARHERBACIN A] as well.
Given back: 407

Asked: And then `CC(=O)C1=CC[C@H]2[C@]3(C)CC[C@H]4C(C)(C)CCC[C@]4(C(=O)O)[C@H]3CC(=O)[C@]2(C)[C@H]1C=O` , what is it?
Given back: 468
